# Test system: bovine cardiac myofibrils
# protocolDetails: Myofibril assay: PK/LDH-coupled steady-state ATPase activity of skinned bovine cardiac myofibrils
# Assay type: biochemical
# appliedConditions: Ca2+ activating to 75% of maximal rate
Entry class follows CDMF75 IC15: class 1 = under 2 µM, class 2 = from 2 µM up to 8 µM, class 3 = 8 µM and over

Here's what some known entries look like.
compound="CC(C)N1CC(=O)N(Cc2ccc(Cl)cc2)C(c2ccc(Cl)cc2)C1=O (single isomer, unassigned) [Compound 288B]" assayedsystem="bovine cardiac myofibrils" answerlabel="class 3"
compound=CC(=O)N1CC2(C1)C(=O)N(c1ccc(Cl)cc1F)CC(=O)N2Cc1ccc(F)cc1 assayedsystem="bovine cardiac myofibrils" answerlabel="class 2"
compound="CCNC(=O)N1CCC2(C1)C(=O)N(C(C)C)CC(=O)N2Cc1ccc(C(F)(F)F)cc1 (centres unmarked)" assayedsystem="bovine cardiac myofibrils" answerlabel="class 2"
compound=CC(C)(C)OC[C@H]1C(=O)N(c2ccc(C#N)cc2F)CC(=O)N1Cc1ccc(C(F)(F)F)cc1 assayedsystem="bovine cardiac myofibrils" answerlabel="class 3"
compound="COc1cnc(N2CC(=O)N(Cc3ccc(C(F)(F)F)cc3)C(C3COC3)C2=O)c(F)c1 (single isomer, unassigned) [Compound 703A]" assayedsystem="bovine cardiac myofibrils" answerlabel="class 2"

Kindly consider the entry below.
Inquiry: Please classify: "CC(C)N1CC(=O)N(Cc2ccc(Cl)cc2)C2(CN(c3cncs3)C2)C1=O"
Reply text: class 2

====

# Tested on: bovine cardiac myofibrils
# protocolDetails: Myofibril assay: PK/LDH-coupled steady-state ATPase activity of skinned bovine cardiac myofibrils
# Type: biochemical
# appliedConditions: Ca2+ activating to 75% of maximal rate
recordedEndpoint: CDMF75 IC15 (µM)
State the answer as a number, implicitly in µM.

compound="Cc1ccc(CN2C(=O)CN(C(C)C)C(=O)C2c2ccc(Cl)cc2)cc1 (stereo not shown) [Compound 305]" recordedendpoint="CDMF75 IC15" testvalue=6.0

Inquiry: // query CDMF75 IC15 value for entry O=C1CN([C@@H]2CCOC2)C(=O)C2(CCN(c3ccccn3)C2)N1Cc1ccc(Cl)cc1 (stereo partly shown) [Compound 93]
Reply text: 19.7

Inquiry: Quick check: CDMF75 IC15 of CNC(=O)N1CC2(C1)C(=O)N(c1ccc(C#N)c(C)c1)CC(=O)N2Cc1ccc(C(F)(F)F)cc1 [Compound 167] ?
Reply text: 1.3

Inquiry: Need CDMF75 IC15, item Cc1nnc(N2CC3(C2)C(=O)N(C(C)C)CC(=O)N3Cc2ccc(Cl)cc2)o1 [Compound 45]
Reply text: 12.8

Inquiry: Return reported CDMF75 IC15; argument: CC(C)N1CC(=O)N(Cc2ccccc2Cl)C(c2ccc(Cl)cc2)C1=O (stereo not shown) [Compound 302]
Reply text: 15.2

Inquiry: Which measured CDMF75 IC15 value corresponds to N#Cc1ccc(N2CC(=O)N(Cc3ccc(C(F)(F)F)cc3)C3(CN(CC(F)F)C3)C2=O)cc1 [Compound 191] ?
Reply text: 14.3

Inquiry: Field request: CDMF75 IC15 | item: CCNC(=O)N1CC2(C1)C(=O)N(c1ncc(Cl)cc1F)CC(=O)N2[C@@H](C)c1ccc(Cl)cc1 [Compound 560]
Reply text: 8.6

Inquiry: Param item = C=Cc1cnc(N2CC(=O)N(Cc3ccc(Cl)cc3)C(C3COC3)C2=O)c(F)c1 (stereo not shown) [Compound 723] ; retrieve measured CDMF75 IC15.
Reply text: 7.1

Inquiry: What measured CDMF75 IC15 goes with CNC(=O)N1CC2(C1)C(=O)N(C(C)CC#N)CC(=O)N2Cc1ccc(C(F)(F)F)cc1 (stereo not shown) [Compound 320] ?
Reply text: 17.8

Inquiry: Which CDMF75 IC15 value belongs to CC(C)N1CC(=O)N(Cc2ccc(Cl)c(Cl)c2)C2(CCN(c3ccc(C#N)cn3)C2)C1=O (stereo not shown) [Compound 90] ?
Reply text: 1.7

Inquiry: Please look up its CDMF75 IC15: Cc1cc(Cl)cnc1N1CC(=O)N(Cc2ccc(F)c(Cl)c2)C(C2COC2)C1=O (stereo not shown) [Compound 717]
Reply text: 7.3

Inquiry: Name the recorded CDMF75 IC15 for Cc1ccc(CN2C(=O)CN(c3ncc(Cl)cc3F)C(=O)C23CC2(COC2)C3)cc1 [Compound 816] .
Reply text: 0.9

Inquiry: Query: CDMF75 IC15; subject: CC(C)N1CC(=O)N(Cc2ccc(Cl)cc2)C2(CN(c3ccnc(C4CC4)c3)C2)C1=O [Compound 34]
Reply text: 10.4

====

# Test system: bovine cardiac myofibrils
# protocolDetails: Myofibril assay: PK/LDH-coupled steady-state ATPase activity of skinned bovine cardiac myofibrils
# Assay type: biochemical
# appliedConditions: Ca2+ activating to 75% of maximal rate
recordedEndpoint: CDMF75 IC15 (µM)
Entry rule: numbers only, all in µM.

compound="N#Cc1ccc(N2CC(=O)N(Cc3ccc(C(F)(F)F)cc3)C3(CN(C(=O)C4CC4)C3)C2=O)c(F)c1 [Compound 203]" assayedsystem="bovine cardiac myofibrils" unitspec=µM testvalue=0.6
compound="CC(C)NC(=O)N1CC2(C1)C(=O)N(c1ncc(Cl)cc1F)CC(=O)N2[C@@H](C)c1ccc(Cl)cc1 [Compound 561]" assayedsystem="bovine cardiac myofibrils" unitspec=µM testvalue=19.8
compound="Cc1coc([C@H]2C[C@]3(C2)C(=O)N(c2ccc(C#N)cc2F)CC(=O)N3Cc2ccc(C(F)(F)F)cc2)n1 [Compound 442B]" assayedsystem="bovine cardiac myofibrils" unitspec=µM testvalue=0.4
compound="CC1(C)C(=O)N(c2ccc(C#N)cc2F)CC(=O)N1Cc1ccc(C(F)(F)F)cc1 [Compound 279]" assayedsystem="bovine cardiac myofibrils" unitspec=µM testvalue=1.2

Inquiry: State the recorded CDMF75 IC15 for this entry: O=C1C(C2COC2)N(Cc2ccc(Cl)cc2)C(=O)CN1c1ncc(Cl)cc1F (stereo not drawn) [Compound 633]
Reply text: 1.3

Inquiry: Can you share its CDMF75 IC15? I mean this compound: CC(=O)N1CC2(C1)C(=O)N(c1ccc(Cl)cc1F)CC(=O)N2[C@@H](C)c1ccc(C(F)(F)F)cc1 [Compound 340]
Reply text: 0.7

Inquiry: Find the recorded CDMF75 IC15 belonging to CC(=O)N1CC2(C1)CC1(C2)C(=O)N(c2ncc(Cl)cc2F)CC(=O)N1Cc1ccc(C(F)(F)F)cc1 [Compound 825] and report it.
Reply text: 0.7

Inquiry: Look up CDMF75 IC15 for this compound: CC(C)N1CC(=O)N(Cc2ccc(Cl)cc2)C2(CN(c3ccc(C(F)(F)F)nn3)C2)C1=O [Compound 53]
Reply text: 14.7

====

# Tested on: bovine cardiac myofibrils
# protocolDetails: Myofibril assay: PK/LDH-coupled steady-state ATPase activity of skinned bovine cardiac myofibrils
# Assay type: biochemical
# appliedConditions: Ca2+ activating to 75% of maximal rate
# Procedure: To evaluate the effect of compounds on the ATPase activity of full-length cardiac myosin in the context of the native sarcomere, skinned myofibril assays were performed. […] Small molecule agents were assessed for their ability to inhibit the steady-state ATPase activity of bovine cardiac myofibrils using pyruvate kinase and lactate dehydrogenase (PK/LDH)-coupled enzyme system. This assay regenerates myosin-produced ADP into ATP by oxidizing NADH, producing an absorbance change at 340 nm. […]
recordedEndpoint: CDMF75 IC15 (µM)
Report as a plain number; the unit µM is understood.

molecule=CC(=O)N1CC2(C1)C(=O)N(c1ncc(Br)cc1F)CC(=O)N2[C@@H](C)c1ccc(C(F)(F)F)cc1 testvalue=2.0
molecule="CC(C)N1CC(=O)N(Cc2ccc(Cl)cc2)C2(CCN(c3ccn(C)c(=O)c3)C2)C1=O (stereo not drawn)" testvalue=1.7
molecule=N#Cc1ccc(N2CC(=O)N(Cc3ccc(Cl)cc3)[C@]3(CCN(C=O)C3)C2=O)c(F)c1 testvalue=0.8
molecule=Cc1cc(Cl)cnc1N1CC(=O)N(Cc2ccc(Cl)cc2)[C@@H](C(C)C)C1=O testvalue=0.84
molecule=CNC(=O)c1cc(N2CC3(C2)C(=O)N(C(C)C)CC(=O)N3Cc2ccc(Cl)cc2)ccn1 testvalue=12.4
molecule=COC(=O)N1CC[C@]2(C1)C(=O)N(c1ccc(C#N)cc1F)CC(=O)N2Cc1ccc(Cl)cc1 testvalue=0.4
molecule=COC(=O)N1CC2(C1)C(=O)N(c1ncc(Cl)cc1F)CC(=O)N2[C@@H](C)c1ccc(Cl)cc1 testvalue=1.2
molecule=O=C1CN(c2ccc(Cl)cc2F)C(=O)CN1Cc1ccc(C(F)(F)F)cc1 testvalue=32.7

Inquiry: Item N#Cc1ccc(N2CC(=O)N(Cc3ccc(C(F)(F)F)cc3)[C@]3(C[C@H](C(=O)N4CCOCC4)C3)C2=O)c(F)c1 [Compound 444B] has what recorded CDMF75 IC15?
Reply text: 0.2

Inquiry: Which CDMF75 IC15 value belongs to CNC(=O)N1CC2(C1)C(=O)N(C(C)c1ccc(C#N)cc1)CC(=O)N2Cc1ccc(C(F)(F)F)cc1 (stereo not drawn) ?
Reply text: 1.51

Inquiry: Name the recorded CDMF75 IC15 for CC(=O)N1CC(C2C(=O)N(c3ncc(Cl)cc3F)CC(=O)N2Cc2ccc(C(F)(F)F)cc2)C1 (stereo not drawn) .
Reply text: 5.8

Inquiry: Reported CDMF75 IC15 for CC(=O)N1CC(CC2C(=O)N(c3ncc(Cl)cc3F)CC(=O)N2Cc2ccc(C(F)(F)F)cc2)C1 (stereo not drawn) : what is it?
Reply text: 17.0

Inquiry: Need CDMF75 IC15, item CC1(CO)C(=O)N(c2ncc(Cl)cc2F)CC(=O)N1Cc1ccc(C(F)(F)F)cc1 (stereo not drawn)
Reply text: 6.5

Inquiry: Consider the molecule shown here: "CNC(=O)N1CC2(C1)C(=O)N(c1ccc(C(F)(F)F)cc1)CC(=O)N2Cc1ccc(C(F)(F)F)cc1" What is its recorded CDMF75 IC15?
Reply text: 12.2

Inquiry: # lookup: CDMF75 IC15 of N#Cc1ccc(N2CC(=O)N(Cc3ccc(Cl)cc3)C3(CCN(C(=O)C4COC4)C3)C2=O)c(F)c1 (stereo in doubt)
Reply text: 1.7
